- target.under.test: Cellular tumor antigen p53 (Homo sapiens) (UniProt P04637)
- Sequence (P04637 whole entry, looked up): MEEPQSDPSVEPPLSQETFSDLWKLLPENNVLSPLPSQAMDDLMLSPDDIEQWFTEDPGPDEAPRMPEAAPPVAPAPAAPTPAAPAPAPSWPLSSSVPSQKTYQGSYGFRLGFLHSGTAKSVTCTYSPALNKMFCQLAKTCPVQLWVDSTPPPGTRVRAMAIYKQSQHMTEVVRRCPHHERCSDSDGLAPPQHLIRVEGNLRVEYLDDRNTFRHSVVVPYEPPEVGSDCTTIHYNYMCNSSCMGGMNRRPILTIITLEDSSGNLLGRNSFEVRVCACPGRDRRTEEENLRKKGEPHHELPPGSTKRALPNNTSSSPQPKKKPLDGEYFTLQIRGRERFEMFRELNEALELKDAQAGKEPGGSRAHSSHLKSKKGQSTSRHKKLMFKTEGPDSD
- test.details: Primary qHTS for small molecule compounds that upregulate eGFP-tagged delta133p53alpha (in N-terminal) cells. (AID 2060322);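 also: cells pre-induced with doxycycline then dosed without doxycycline; series mostly up to about 56 µM; 0% = DMSO vehicle and 100% = reference activator; nearly all actives have a fitted effect of over 75% in size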
- condition.details: NCI-H358 eGFP-delta133p53alpha fluorescence, 24 h; active compounds read high
- Source text: Assay Development and Screening Technology National Center for Advancing Translational Sciences (NCATS), National Institute of Health (NIH), Rockville, Maryland Cellular senescence (CS) is one of the hallmarks of aging and age-related diseases. […] Here we report the development and validation of a cell-based quantitative high throughput screening (qHTS) assay in 1,536-well format. […]
Records with an inconclusive call do not appear.
observable: activation (%)
Give bare numbers, in %.

Give activation for each listed item.
1. CC(=O)OC[C@]12[C@@H](OC(=O)c3ccoc3)C[C@@H]3[C@@H](OC(C)=O)[C@]1(OC3(C)C)[C@@](C)(O)C[C@H](OC(=O)c1ccoc1)[C@@H]2OC(=O)c1ccoc1
2. Cn1nccc1Nc1nccc(-c2ccn([C@H](CO)c3ccc(Cl)c(F)c3)c(=O)c2)n1
3. Cc1cc(C(=O)N2Cc3cnn(C)c3Nc3ccccc32)ccc1CNC(=O)N1CCN(Cc2cc(O)cc(O)c2)CC1
4. CN1c2c(nc(N)[nH]c2=O)NC[C@@H]1CNc1ccc(C(=O)N[C@@H](CCC(=O)O)C(=O)O)cc1
5. NC(=O)c1cc[n+](CC2=C(C(=O)O)N3C(=O)[C@@H](NC(=O)[C@@H](c4ccccc4)S(=O)(=O)[O-])[C@H]3SC2)cc1
6. CCOC(=O)c1cnn(-c2ccccc2)c1NC(=O)c1cc2nc(-c3ccco3)cc(C(F)(F)Cl)n2n1

1: -9.16; 2: -22.3; 3: -7.16; 4: -8.33; 5: -28.8; 6: 0.955

* * *

- target.under.test: Cellular tumor antigen p53 (Homo sapiens) (UniProt P04637)
- test.details: Primary qHTS for small molecule compounds that upregulate eGFP-tagged delta133p53alpha (in N-terminal) cells. (AID 2060322);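 also: cells pre-induced with doxycycline then dosed without doxycycline; series mostly up to about 56 µM; 0% = DMSO vehicle and 100% = reference activator; nearly all actives have a fitted effect of over 75% in size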
- condition.details: NCI-H358 eGFP-delta133p53alpha fluorescence, 24 h; active compounds read high
Records with an inconclusive call do not appear.
Would you kindly list activation for each of these compounds?
Give bare numbers, in %.

C/C=C(\C)C(=O)O[C@H]1[C@@H](O[C@]2(COC(=O)CC(C)C)O[C@H](COC(=O)C(C)CC)[C@@H](OC(C)=O)[C@@H]2O)O[C@H](COC(C)=O)[C@@H](O)[C@@H]1O (stereo partly drawn) = 9.16
CCN(c1cc(C#CCN2CCOCC2)cc(C(=O)NCc2c(C)cc(C)[nH]c2=O)c1C)C1CCC(N(C)CCOC)CC1 (stereo not drawn) = -11.7
CN(C)C(=O)c1cc2cnc(Nc3ccc(N4CCNCC4)cn3)nc2n1C1CCCC1 = 15.2
CCC1(c2cnc[nH]2)Cc2ccccc2C1 = -7.53
CNS(=O)(=O)CC1CCC(N(C)c2ncnc3[nH]ccc23)CC1 (stereo not drawn) = -0.477

For each listed entry, give its activation.
1. [O-][n+]1cccc(CO)c1
2. CC=C1NC(=O)[C@H]2CSSCCC=C[C@H](CC(=O)N[C@H](C(C)C)C(=O)N2)OC(=O)[C@H](C(C)C)NC1=O
3. C=C1CC23CC1(O)CCC2C1=CC2OC(=O)C(C)(C2O)C1C3C(=O)O (stereo not drawn)
4. O=C(O)c1ccnc2cc(-c3nc4ccccc4n3CCN3CCCCC3)sc12
5. Oc1cccc(O)c1
6. Cc1cc(C)c(/C=C2\C(=O)Nc3ccccc32)[nH]1

[20.1, 27.9, 6.87, -1.79, -16.4, -35.1]

Each of the following entries comes with a recorded value; kindly state activation for each.
1. O=C(Nc1ccccc1)Nc1ccc(-c2ccc(C(=O)C3CCCC3C(=O)O)cc2)cc1 (stereo not drawn)
2. Nc1ncnc2c1ncn2[C@H]1CCCO1
3. Cc1cc(C)c(NC(=O)CN(CC(=O)O)CC(=O)O)c(C)c1Br
4. O=C(O)CC1CCC(c2ccc(-c3ccc(Nc4ccc(C(F)(F)F)nc4)cn3)cc2)CC1 (stereo not drawn)
5. COc1cc(C(=O)OC[C@H]2O[C@H](O[C@@]3(CO)O[C@@H](CO)[C@H](O)[C@H]3O)[C@H](O)[C@@H](O)[C@@H]2O)ccc1O
6. COC(=O)C1=COC(OC2OC(CO)C(O)C(O)C2O)C2C(COC(=O)/C=C/c3ccc(O)cc3)C(O)C(O)C12 (stereo not drawn)
7. CCc1ccc(C(=O)C(C)CN2CCCCC2)cc1 (stereo not drawn)

-6.21
-5.73
-11.9
-9.55
-1.53
-6.87
-5.86
